// provenance: patent US20230081426A1

# Target entity: G12D-mutant human KRAS (amino acid residues 1-188) (Homo sapiens, UniProt P01116, G12D)
# Construct: G12D or G12C-mutant human KRAS (amino acid residues 1-188) with FLAG tag; made in house; host or cells: E. coli
# Sequence (P01116 1-188 isoform P01116-2 G12D): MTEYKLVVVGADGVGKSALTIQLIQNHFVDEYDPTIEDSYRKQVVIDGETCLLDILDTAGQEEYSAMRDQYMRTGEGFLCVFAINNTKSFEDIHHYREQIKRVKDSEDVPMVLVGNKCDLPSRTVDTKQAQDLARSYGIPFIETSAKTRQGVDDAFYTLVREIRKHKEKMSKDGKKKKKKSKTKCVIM
# Test protocol: KRAS Binding Disruption Assay (AlphaScreen; biotinylated KRpep-2d analogue or RAF1-RBD), G12D
# Setup conditions: KRAS G12D; geometric mean; read-out: KRAS GMean IC50 (uM) MUTATION: G12D
Field: IC50. Provide a value for each of the compounds that follow.

Would you kindly share the measured IC50 for Oc1cc(-c2nc(N3C[C@H]4CC[C@@H](C3)N4)c3ccc(-c4cc(O)cc5ccccc45)c(F)c3n2)c2ccccc2c1 ? 10 to 100 µM

Field entry: Nc1ccc(Cl)c(-c2c(F)cc3c(N4C[C@H]5CC[C@@H](C4)N5)nc(OCC45CCCN4CCC5)nc3c2F)c1 0.0001 to 10 µM

Field entry: CN(C)C(=O)CNc1nc(N2C[C@H]3CC[C@@H](C2)N3)c2ccc(-c3cc(O)cc4ccccc34)cc2n1 10 to 100 µM

Field entry: CN1CCC[C@H]1COc1nc(N2C[C@H]3CC[C@@H](C2)N3C(=O)Cc2cc[nH]n2)c2ccc(-c3cc(O)cc4ccccc34)c(F)c2n1 100 to 1000 µM

Field entry: CN1CCC[C@H]1COc1nc(N2C[C@H]3CC[C@@H](C2)N3)c2cc(F)c(N3CC(O)Cc4ccccc43)c(F)c2n1 (stereo partly drawn) 0.0001 to 10 µM

Field entry: Oc1cc(-c2ccc3c(N4C[C@H]5CC[C@@H](C4)N5)nc(OCC4CCCO4)nc3c2)c2ccccc2c1 (stereo partly drawn) 0.0001 to 10 µM
